# MEASUREMENT DESCRIPTION: Emission spectra and fluorescence quantum yield
# Assay type: physicochemical
# MEASUREMENT CONTEXT: in acetonitrile
Counter-ions that a name gives are not always drawn.
QUANTITY MEASURED: Emission max. (nm)

INSERT INTO assay_data (molecule, unit_spec, reported_measurement) VALUES
  ('CCOP(=O)(CC(=O)[O-])c1c2ccc(N(C)C)cc2[o+]c2cc(N(C)C)ccc12 (stereo not shown)', 'nm', 656),
  ('COP(=O)([O-])C1=c2cc3c4c(c2Oc2c1cc1c5c2CCCN5CCC1)CCC[N+]=4CCC3', 'nm', 623),
  ('COP(=O)(c1c2ccc(N(C)C)cc2[o+]c2cc(N(C)C)ccc12)N(C(C)C)C(C)C.O=C([O-])C(F)(F)F (stereo not shown)', 'nm', 649),
  ('CCN(CC)c1ccc2c(P(=O)(OC)OC)c(-c3nc4ccccc4s3)c(=O)oc2c1', 'nm', 651),
  ('CC1=CC(C)=[N+]2C1=C(P(=O)(OC(C)C)OC(C)C)c1c(C)cc(C)n1[B-]2(F)F', 'nm', 647),
  ('C=CCOP(=O)(C1=c2cc3c(cc2C(C)(C)c2cc4c(cc21)CCCN4CCOC)=[N+](CCOC)CCC3)N(C(C)C)C(C)C (stereo not shown) [Compound 26, trifluoroacetate]', 'nm', 812),
  ('CCN(CC)c1ccc2c(P(=O)(O)O)c(-c3nc4ccccc4s3)c(=O)oc2c1', 'nm', 613);

----------
Here, each record is paired with measured QY (fluorescence quantum yield, Φfl) data.
# MEASUREMENT DESCRIPTION: Emission spectra and fluorescence quantum yield
# Format: physicochemical
# MEASUREMENT CONTEXT: in aq. PBS, pH 7.4
QUANTITY MEASURED: QY (fluorescence quantum yield, Φfl)

INSERT INTO measurements (molecule, reported_measurement) VALUES
  ('CCN(CC)c1ccc2c(P(=O)(O)O)c(-c3nc4ccccc4s3)c(=O)oc2c1', 0.04),
  ('COP(=O)(c1c2ccc(N(C)C)cc2[o+]c2cc(N(C)C)ccc12)N(C(C)C)C(C)C.O=C([O-])C(F)(F)F (stereo not drawn)', 0.11),
  ('COP(=O)(OC)c1c2ccc(=[N+](C)C)cc-2oc2cc(N(C)C)ccc12.O=C([O-])C(F)(F)F', 0.16);

----------
# MEASUREMENT DESCRIPTION: Emission spectra and fluorescence quantum yield
# Type: physicochemical
# MEASUREMENT CONTEXT: in aq. PBS, pH 7.4
# Protocol: Absorption spectra were recorded with a Varian Cary 4000 UV-Vis double-beam spectrophotometer (Agilent Technologies, USA). For the determination of the absorption spectra, quartz cells with a 1 cm path length were used. Emission spectra and fluorescence quantum yield were obtained on a Quantaurus-QY Absolute PL quantum yield spectrometer C11347 (Hamamatsu Photonics, Japan) or on a Varian Cary Eclipse fluorescence spectrometer (Agilent Technologies, USA).
Structures can show the parent of a compound that is named as a salt.
QUANTITY MEASURED: Emission max. (nm)

INSERT INTO measurements (compound, quantity_measured, reported_measurement) VALUES
  ('CN(C)c1ccc2c(P(=O)(c3ccccc3)c3ccccc3)c3ccc(N(C)C)cc3[o+]c2c1.O=C([O-])C(F)(F)F [Compound 8]', 'Emission max.', 639),
  ('CCOP(=O)(c1c2ccc(=[N+](C)C)cc-2oc2cc(N(C)C)ccc12)N(C)CCC(=O)O.O=C([O-])C(F)(F)F (stereo not drawn) [Compound 10]', 'Emission max.', 670),
  ('C=CCOP(=O)(C1=c2cc3c(cc2C(C)(C)c2cc4c(cc21)CCCN4CCOC)=[N+](CCOC)CCC3)N(C(C)C)C(C)C (stereo not drawn) [Compound 26, trifluoroacetate]', 'Emission max.', 860);

----------
# MEASUREMENT DESCRIPTION: Emission spectra and fluorescence quantum yield
# Assay type: physicochemical
# MEASUREMENT CONTEXT: in acetonitrile
Structures can show the parent of a compound that is named as a salt.
Binary call on QY (fluorescence quantum yield, Φfl) with cut-off 0.3: strictly below means t, and equality or higher means f.

INSERT INTO measurements (compound, label_value) VALUES
  ('COP(=O)(OC)c1c(-c2nc3ccccc3s2)c(=O)oc2cc(N3CC(O)C3)ccc12', 't'),
  ('C=CCOC(=O)CCCOP(=O)(OC)[c+]1c2ccc(N(C)C)cc2oc2cc(N(C)C)ccc21 (stereo not drawn)', 'f'),
  ('CC(C)OP(=O)(OC(C)C)c1c2ccc(N(C)C)cc2[o+]c2cc(N(C)C)ccc12.O=C([O-])C(F)(F)F', 'f'),
  ('CCOP(=O)(c1c2ccc(=[N+](C)C)cc-2oc2cc(N(C)C)ccc12)N(C)CCC(=O)O.O=C([O-])C(F)(F)F (stereo not drawn)', 'f'),
  ('CCN(CC)c1ccc2c(P(=O)(OC(C)(C)C)OC(C)(C)C)c(-c3nc4ccccc4s3)c(=O)oc2c1', 't'),
  ('COP(=O)([c+]1c2ccc(N(C)C)cc2sc2cc(N(C)C)ccc21)N(C(C)C)C(C)C.O=C([O-])C(F)(F)F (stereo not drawn)', 't'),
  ('COP(=O)([O-])C1=c2cc3c4c(c2Oc2c1cc1c5c2CCCN5CCC1)CCC[N+]=4CCC3', 'f'),
  ('CCOP(=O)(C1=c2cc3c4c(c2Oc2c1cc1c5c2CCCN5CCC1)CCC[N+]=4CCC3)N(C)CCC(=O)O (stereo not drawn) [Compound 19, trifluoroacetate]', 't'),
  ('CCN(CC)c1ccc2c(P(=O)(O)O)c(-c3nc4ccccc4s3)c(=O)oc2c1', 't');

----------
Here, each record is paired with measured Stokes shift data.
# MEASUREMENT DESCRIPTION: Emission spectra and fluorescence quantum yield
# Assay type: physicochemical
# MEASUREMENT CONTEXT: in aq. PBS, pH 7.4
Where a name gives a salt, the structure may show the parent alone.
QUANTITY MEASURED: Stokes shift (nm)

INSERT INTO measurements (compound, quantity_measured, reported_measurement) VALUES
  ('CC(C)OP(=O)(OC(C)C)c1c2ccc(N(C)C)cc2[o+]c2cc(N(C)C)ccc12.O=C([O-])C(F)(F)F', 'Stokes shift', 39),
  ('COP(=O)(c1c2ccc(N(C)C)cc2[o+]c2cc(N(C)C)ccc12)N(C(C)C)C(C)C.O=C([O-])C(F)(F)F (stereo not shown)', 'Stokes shift', 36),
  ('CCOP(=O)(CC(=O)[O-])c1c2ccc(N(C)C)cc2[o+]c2cc(N(C)C)ccc12 (stereo not shown)', 'Stokes shift', 36),
  ('C=CCOC(=O)CCCOP(=O)(OC)[c+]1c2ccc(N(C)C)cc2oc2cc(N(C)C)ccc21 (stereo not shown)', 'Stokes shift', 37),
  ('CN(C)c1ccc2c(P(=O)(Oc3ccccc3C(=O)[O-])N(C)C)c3ccc(=[N+](C)C)cc-3oc2c1 (stereo not shown)', 'Stokes shift', 35),
  ('CCOP(=O)(C1=c2cc3c4c(c2Oc2c1cc1c5c2CCCN5CCC1)CCC[N+]=4CCC3)N(C)CCC(=O)O (stereo not shown) [Compound 19, trifluoroacetate]', 'Stokes shift', 46),
  ('CC[N+](CC)=c1ccc2c(P(=O)(OC)OC)c3c(oc-2c1)-c1ccc(N(C)C)cc1CC3.O=C([O-])C(F)(F)F', 'Stokes shift', 61),
  ('COP(=O)([O-])C1=c2cc3c4c(c2Oc2c1cc1c5c2CCCN5CCC1)CCC[N+]=4CCC3', 'Stokes shift', 36),
  ('CCOP(=O)(c1c2ccc(=[N+](C)C)cc-2oc2cc(N(C)C)ccc12)N(C)CCC(=O)O.O=C([O-])C(F)(F)F (stereo not shown)', 'Stokes shift', 45),
  ('C=CCOP(=O)(C1=c2cc3c(cc2C(C)(C)c2cc4c(cc21)CCCN4CCOC)=[N+](CCOC)CCC3)N(C(C)C)C(C)C (stereo not shown) [Compound 26, trifluoroacetate]', 'Stokes shift', 126),
  ('CN(C)c1ccc2c(P(=O)(c3ccccc3)c3ccccc3)c3ccc(N(C)C)cc3[o+]c2c1.O=C([O-])C(F)(F)F', 'Stokes shift', 38),
  ('COP(=O)(C1=c2cc3c4c(c2Oc2c1cc1c5c2CCCN5CCC1)CCC[N+]=4CCC3)N(C(C)C)C(C)C (stereo not shown) [Compound 17, trifluoroacetate]', 'Stokes shift', 35);

----------
# MEASUREMENT DESCRIPTION: Absorption spectroscopy (UV/Vis)
# Assay type: physicochemical
# MEASUREMENT CONTEXT: in aq. PBS, pH 7.4
Structures can show the parent of a compound that is named as a salt.
Binary call on ε at absorption max. with cut-off 30000 M⁻¹ cm⁻¹: strictly below means Yes, and equality or higher means No.

INSERT INTO results (compound, label_value) VALUES
  ('CN(C)c1ccc2c([PH](=O)O)c3ccc(N(C)C)cc3[n+](CCCC(=O)O)c2c1.O=C([O-])C(F)(F)F', 'No'),
  ('CCOP(=O)(c1c2ccc(=[N+](C)C)cc-2oc2cc(N(C)C)ccc12)N(C)CCC(=O)O.O=C([O-])C(F)(F)F (centres unmarked)', 'Yes'),
  ('CC[N+](CC)=c1ccc2c(P(=O)(OC)OC)c3c(oc-2c1)-c1ccc(N(C)C)cc1CC3.O=C([O-])C(F)(F)F', 'Yes'),
  ('CN(C)c1ccc2c(P(=O)(Oc3ccccc3C(=O)[O-])N(C)C)c3ccc(=[N+](C)C)cc-3oc2c1 (centres unmarked)', 'No'),
  ('C=CCOP(=O)(C1=c2cc3c(cc2C(C)(C)c2cc4c(cc21)CCCN4CCOC)=[N+](CCOC)CCC3)N(C(C)C)C(C)C (centres unmarked) [Compound 26, trifluoroacetate]', 'No'),
  ('CCOP(=O)(C1=c2cc3c4c(c2Oc2c1cc1c5c2CCCN5CCC1)CCC[N+]=4CCC3)N(C)CCC(=O)O (centres unmarked) [Compound 19, trifluoroacetate]', 'No'),
  ('COP(=O)(OC)c1c2ccc(=[N+](C)C)cc-2oc2cc(N(C)C)ccc12.O=C([O-])C(F)(F)F', 'Yes'),
  ('COP(=O)([C+]1c2ccc(N(C)C)cc2-c2cccc3c(N(C)C)ccc1c23)N(C(C)C)C(C)C.O=C([O-])C(F)(F)F (centres unmarked)', 'Yes'),
  ('CCOP(=O)(CC(=O)[O-])c1c2ccc(N(C)C)cc2[o+]c2cc(N(C)C)ccc12 (centres unmarked)', 'No'),
  ('CCN(CC)c1ccc2c(P(=O)(O)O)c(-c3nc4ccccc4s3)c(=O)oc2c1', 'Yes');
